- test name: activity coefficient (dimensionless); of the first substance listed, at infinite dilution; xn = mol fraction of the nth substance listed
- measurement conditions: 323 K; 101 kPa; Liquid; Chromatography; x1 = 0
# cutoff 4 applies to activity coefficient; >= gives TRUE, < gives FALSE

Say whether C#CCCCCC [1-heptyne] + CC[n+]1ccccc1.O=S(=O)([N-]S(=O)(=O)C(F)(F)F)C(F)(F)F shows activity coefficient of 4 or more.
TRUE

Same again, this time with C=CCCCC [hex-1-ene] + CCCC[n+]1ccccc1.O=S(=O)([N-]S(=O)(=O)C(F)(F)F)C(F)(F)F
TRUE

Same lookup for C#CCCCC [1-hexyne] + CC[n+]1ccccc1.O=S(=O)([N-]S(=O)(=O)C(F)(F)F)C(F)(F)F , please.
TRUE

Also C#CCCC [1-pentyne] + CC[n+]1ccccc1.O=S(=O)([N-]S(=O)(=O)C(F)(F)F)C(F)(F)F , if possible.
FALSE

Entry CCCCC [pentane] + CC[n+]1ccccc1.O=S(=O)([N-]S(=O)(=O)C(F)(F)F)C(F)(F)F please
FALSE

Field entry: CCCO [propan-1-ol] + CC[n+]1ccccc1.O=S(=O)([N-]S(=O)(=O)C(F)(F)F)C(F)(F)F
FALSE

Moving on to CCO [ethanol] + CC[n+]1ccccc1.O=S(=O)([N-]S(=O)(=O)C(F)(F)F)C(F)(F)F
FALSE

Repeat for the following compound: C#CCCCCCC [1-octyne] + CC[n+]1ccccc1.O=S(=O)([N-]S(=O)(=O)C(F)(F)F)C(F)(F)F
TRUE

Same question, CO [methanol] + CC[n+]1ccccc1.O=S(=O)([N-]S(=O)(=O)C(F)(F)F)C(F)(F)F this time
FALSE
